Recorded values, source patent US12077503B2.

test system: barnyardgrass (Echinochloa crus-galli); test: Test C preemergence; assay type: in vivo; settings: 62 g ai/ha, scale 0 to 100, 0 no effect, 100 complete control
ENDPOINT: Plant response rating, Barnyardgrass
// print number alone

[ask] Endpoint output: Plant response rating, Barnyardgrass of Cc1ccc(C2CN(C)C(=O)C2C(=O)Nc2cccc(F)c2F)cc1 (centres unmarked) . Value?
[reply] 98

[ask] Endpoint output: Plant response rating, Barnyardgrass of CN1CC(c2cccc(OC(F)F)c2)C(C(=O)Nc2ccccc2F)C1=O (centres unmarked) . Value?
[reply] 95

[ask] Endpoint output: Plant response rating, Barnyardgrass of CN1CC(c2cccc(OC(F)(F)C(F)F)c2)C(C(=O)Nc2ccc(F)cc2F)C1=O (centres unmarked) . Value?
[reply] 90

More entries:
[ask] Endpoint output: Plant response rating, Barnyardgrass of CN1CC(c2cccc(C(F)(F)F)c2)C(C(=O)Nc2cccc(F)c2F)C1=O (centres unmarked) . Value?
[reply] 90

[ask] Endpoint output: Plant response rating, Barnyardgrass of Cc1cccc(C2CN(C)C(=O)C2C(=O)Nc2cccc(F)c2F)c1 (centres unmarked) . Value?
[reply] 95

----------
system: corn (Zea mays); experiment: Test A postemergence; type: in vivo; settings: 125 g ai/ha, postemergence; visual rating after approx. 10 d, 0 to 100 scale (0 no effect, 100 complete control)
ENDPOINT: Plant response rating, Corn
// print number alone

Some compounds with recorded Plant response rating, Corn:
[ask] Endpoint output: Plant response rating, Corn of O=C1NCC(c2ccc(Oc3ccccc3)cc2)C1C(=O)Nc1ccccc1Cl (racemic) . Value?
[reply] 0

[ask] Endpoint output: Plant response rating, Corn of CN1CC(c2cccc(OC(F)F)c2)C(C(=O)Nc2ccccc2F)C1=O (stereo not drawn) . Value?
[reply] 80

[ask] Endpoint output: Plant response rating, Corn of O=C1NCC(c2ccsc2Br)C1C(=O)Nc1ccccc1F (stereo not drawn) . Value?
[reply] 0

[ask] Endpoint output: Plant response rating, Corn of O=C(Nc1ccccc1F)C1C(=O)N(CC=CBr)CC1c1cccc(C(F)(F)F)c1 (stereo not drawn) . Value?
[reply] 0

[ask] Endpoint output: Plant response rating, Corn of CN1CC(c2cccc(C(F)(F)F)c2)C(C(=O)Nc2cccc(Cl)c2F)C1=O (stereo not drawn) . Value?
[reply] 60

Then there is this compound:
[ask] Endpoint output: Plant response rating, Corn of C=CCN1CC(c2cccc(C(F)(F)F)c2)C(C(=O)Nc2cccc(F)c2F)C1=O (stereo not drawn) . Value?
[reply] 0

----------
This section presents molecules with their documented plant injury at 62.5 g/ha values.
system: corn (Zea mays); assay: Test G Pre-Emergence Protocol; type: in vivo; details: Zea mays, pre-emergence, 312 h, 62.5 g ai/ha, evaluated after 13 days, 100=total damage to plant, 0=no damage to plant, read-out: Corn damage rating
Express your answer in %, writing the number without its unit.

Some molecules with recorded plant injury at 62.5 g/ha:
[ask] Endpoint output: plant injury at 62.5 g/ha of Cc1c[nH]nc1NC(=O)[C@@H]1C(=O)N(C)C[C@H]1c1ccc(C(F)(F)F)cc1 (racemic) . Value?
[reply] 0

[ask] Endpoint output: plant injury at 62.5 g/ha of Cc1c(F)ccc(NC(=O)[C@@H]2C(=O)N(C)C[C@H]2c2ccc(C(F)(F)F)cc2)c1Cl (racemic) . Value?
[reply] 0

[ask] Endpoint output: plant injury at 62.5 g/ha of COc1ccc(C2CN(C)C(=O)C2C(=O)Nc2cccc(F)c2F)cc1C (stereo not drawn) . Value?
[reply] 50

[ask] Endpoint output: plant injury at 62.5 g/ha of CN1C[C@H](c2ccc(Cl)cc2)[C@@H](C(=O)Nc2ccc(F)nc2F)C1=O . Value?
[reply] 70

[ask] Endpoint output: plant injury at 62.5 g/ha of COc1cc(C2CN(C)C(=O)C2C(=O)Nc2cccc(F)c2F)cc(OC)c1F (stereo not drawn) . Value?
[reply] 0

[ask] Endpoint output: plant injury at 62.5 g/ha of CN1C[C@@H](c2ccc(C(F)(F)F)cc2)[C@H](C(=O)Nc2cncc(F)n2)C1=O (racemic) . Value?
[reply] 0

[ask] Endpoint output: plant injury at 62.5 g/ha of CCOc1cc([C@@H]2CN(C)C(=O)[C@H]2C(=O)Nc2cccc(F)c2F)cc(C(F)(F)F)n1 (racemic) . Value?
[reply] 0

[ask] Endpoint output: plant injury at 62.5 g/ha of CN1C[C@H](c2cccc(C(C)(C)C#N)c2)[C@@H](C(=O)Nc2ccccc2S(C)(=O)=O)C1=O (racemic) . Value?
[reply] 0

More entries:
[ask] Endpoint output: plant injury at 62.5 g/ha of CN1C[C@H](c2ccc(C(F)(F)F)cc2)[C@@H](C(=O)Nc2cccnc2S(C)(=O)=O)C1=O (racemic) . Value?
[reply] 0

[ask] Endpoint output: plant injury at 62.5 g/ha of CC(C)Oc1cc(F)cc(C2CN(C)C(=O)C2C(=O)Nc2cccc(F)c2F)c1 (stereo not drawn) . Value?
[reply] 40

[ask] Endpoint output: plant injury at 62.5 g/ha of CN1C[C@@H](c2ccc(C(F)(F)F)cc2)[C@H](C(=O)Nc2cnc(Cl)cn2)C1=O (racemic) . Value?
[reply] 0

[ask] Endpoint output: plant injury at 62.5 g/ha of Cc1cc(C2CN(C)C(=O)C2C(=O)Nc2cccc(F)c2F)cc(C)c1Cl (stereo not drawn) . Value?
[reply] 0

[ask] Endpoint output: plant injury at 62.5 g/ha of CN1C[C@H](c2cccc(Cl)c2)[C@@H](C(=O)Nc2cnccc2C(F)(F)F)C1=O (racemic) . Value?
[reply] 0

[ask] Endpoint output: plant injury at 62.5 g/ha of CN1C[C@H](c2ccc(C#N)c(C(F)(F)F)c2)[C@@H](C(=O)Nc2ccccc2S(C)(=O)=O)C1=O (racemic) . Value?
[reply] 0

[ask] Endpoint output: plant injury at 62.5 g/ha of CN1C[C@H](c2cccc(C(F)(F)F)c2)[C@@H](C(=O)Nc2cnccc2[S+](C)[O-])C1=O (mixture of isomers) . Value?
[reply] 0

----------
This section presents compounds with their documented Plant response rating, Foxtail, Giant values.
tested on: giant foxtail (Setaria faberii); test: Test A postemergence; assay type: in vivo; details: Postemergence, 500 g ai/ha; 0 to 100 scale where 0 is no effect and 100 is complete control
Text: […]
// print number alone

Some compounds with recorded Plant response rating, Foxtail, Giant:
[ask] Endpoint output: Plant response rating, Foxtail, Giant of O=C1NCC(c2ccc(Oc3ccccc3)cc2)C1C(=O)Nc1ccc(F)c(F)c1F (racemic) . Value?
[reply] 0

[ask] Endpoint output: Plant response rating, Foxtail, Giant of CC(C)=CCN1CC(c2cccc(C(F)(F)F)c2)C(C(=O)Nc2cccc(F)c2F)C1=O (centres unmarked) . Value?
[reply] 70

More entries:
[ask] Endpoint output: Plant response rating, Foxtail, Giant of Cc1ccc(C2CNC(=O)C2C(=O)Nc2ccccc2S(C)(=O)=O)c(F)c1 (racemic) . Value?
[reply] 20

[ask] Endpoint output: Plant response rating, Foxtail, Giant of CCc1cccc(C2CN(C)C(=O)C2C(=O)Nc2ccccc2F)c1 (centres unmarked) . Value?
[reply] 90

[ask] Endpoint output: Plant response rating, Foxtail, Giant of O=C1NCC(c2ccsc2Br)C1C(=O)Nc1ccccc1F (centres unmarked) . Value?
[reply] 30

[ask] Endpoint output: Plant response rating, Foxtail, Giant of O=C1NCC(c2ccc(Oc3ccccc3)cc2)C1C(=O)Nc1cccc(F)c1F (racemic) . Value?
[reply] 30

[ask] Endpoint output: Plant response rating, Foxtail, Giant of O=C1NCC(c2ccc(Oc3ccccc3)cc2)C1C(=O)Nc1ccccc1Cl (racemic) . Value?
[reply] 0

[ask] Endpoint output: Plant response rating, Foxtail, Giant of O=C1NCC(c2cc(C(F)(F)F)ccc2F)C1C(=O)Nc1ccc(F)cc1F (centres unmarked) . Value?
[reply] 90

----------
tested on: velvetleaf (Abutilon theophrasti); test: Test C preemergence; format: in vivo; conditions: 62 g ai/ha, scale 0 to 100, 0 no effect, 100 complete control
For each record, check the reported Plant response rating, Velvetleaf: if it is below 20 write yes (1), else write no (0).

[ask] Please indicate whether the reported Plant response rating, Velvetleaf of O=C1NCC(c2cc(F)cc(Cl)c2)C1C(=O)Nc1cccc(F)c1F (stereo not drawn) is strictly below 20.
[reply] yes (1)

[ask] Please indicate whether the reported Plant response rating, Velvetleaf of CN1CC(c2cccc(C(F)(F)F)c2)C(C(=O)Nc2ccccc2S(C)(=O)=O)C1=O (stereo not drawn) is strictly below 20.
[reply] yes (1)

[ask] Please indicate whether the reported Plant response rating, Velvetleaf of O=C1NCC(c2cccc(OC(F)(F)C(F)F)c2)C1C(=O)Nc1ccccc1F (racemic) is strictly below 20.
[reply] yes (1)

[ask] Please indicate whether the reported Plant response rating, Velvetleaf of Cc1ccc(C2CN(C)C(=O)C2C(=O)Nc2cccc(F)c2F)cc1 (stereo not drawn) is strictly below 20.
[reply] no (0)

[ask] Please indicate whether the reported Plant response rating, Velvetleaf of CN1CC(c2ccc(C(F)(F)F)c(F)c2)C(C(=O)Nc2ccccc2S(C)(=O)=O)C1=O (stereo not drawn) is strictly below 20.
[reply] no (0)

More entries:
[ask] Please indicate whether the reported Plant response rating, Velvetleaf of CN1C[C@H](c2ccc(F)c(F)c2)[C@@H](C(=O)Nc2cccc(F)c2F)C1=O is strictly below 20.
[reply] no (0)
